Target: C3b (Homo sapiens, UniProt P01024)
Sequence (P01024 23-667, chain 1 of 2): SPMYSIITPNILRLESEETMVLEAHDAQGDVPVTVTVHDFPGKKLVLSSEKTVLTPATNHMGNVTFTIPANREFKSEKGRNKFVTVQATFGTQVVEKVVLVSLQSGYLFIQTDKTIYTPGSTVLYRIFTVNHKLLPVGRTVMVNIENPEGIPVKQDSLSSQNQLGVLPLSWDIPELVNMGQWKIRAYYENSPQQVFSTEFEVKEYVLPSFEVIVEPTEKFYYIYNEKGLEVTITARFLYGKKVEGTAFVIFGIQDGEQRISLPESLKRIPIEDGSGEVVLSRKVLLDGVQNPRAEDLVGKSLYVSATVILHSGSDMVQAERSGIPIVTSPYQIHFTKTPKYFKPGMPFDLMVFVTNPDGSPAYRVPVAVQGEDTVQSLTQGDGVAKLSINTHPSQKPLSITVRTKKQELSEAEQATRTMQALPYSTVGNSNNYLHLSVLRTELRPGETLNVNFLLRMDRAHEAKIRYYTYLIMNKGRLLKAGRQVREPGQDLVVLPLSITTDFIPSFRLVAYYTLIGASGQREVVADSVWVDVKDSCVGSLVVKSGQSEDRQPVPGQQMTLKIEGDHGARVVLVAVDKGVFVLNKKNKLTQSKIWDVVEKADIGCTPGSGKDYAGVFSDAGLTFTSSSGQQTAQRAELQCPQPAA
Sequence (P01024 749-1663, chain 2 of 2): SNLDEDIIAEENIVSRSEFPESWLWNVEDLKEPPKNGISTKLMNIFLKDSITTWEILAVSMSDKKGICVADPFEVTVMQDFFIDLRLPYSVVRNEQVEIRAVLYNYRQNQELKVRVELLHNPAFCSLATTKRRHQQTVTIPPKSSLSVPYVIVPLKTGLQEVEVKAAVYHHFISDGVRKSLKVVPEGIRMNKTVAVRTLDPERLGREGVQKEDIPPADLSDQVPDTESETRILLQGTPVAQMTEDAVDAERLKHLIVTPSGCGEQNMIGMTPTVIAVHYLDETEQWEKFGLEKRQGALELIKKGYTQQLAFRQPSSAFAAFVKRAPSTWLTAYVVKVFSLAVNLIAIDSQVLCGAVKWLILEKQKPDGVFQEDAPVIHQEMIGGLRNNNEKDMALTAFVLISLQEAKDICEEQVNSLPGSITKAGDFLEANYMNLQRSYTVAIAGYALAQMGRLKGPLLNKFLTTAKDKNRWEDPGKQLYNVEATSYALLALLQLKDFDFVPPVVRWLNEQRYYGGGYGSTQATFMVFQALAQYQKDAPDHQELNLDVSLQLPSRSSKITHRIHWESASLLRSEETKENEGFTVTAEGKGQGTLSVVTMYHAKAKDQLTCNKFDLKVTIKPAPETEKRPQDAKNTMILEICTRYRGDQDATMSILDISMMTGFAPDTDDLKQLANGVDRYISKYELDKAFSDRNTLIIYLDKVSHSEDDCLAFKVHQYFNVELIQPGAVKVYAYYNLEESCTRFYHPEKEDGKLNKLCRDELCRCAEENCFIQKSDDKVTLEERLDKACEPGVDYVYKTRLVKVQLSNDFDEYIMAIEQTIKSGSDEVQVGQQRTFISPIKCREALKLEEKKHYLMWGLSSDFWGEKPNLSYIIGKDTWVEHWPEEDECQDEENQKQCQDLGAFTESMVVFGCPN
Test: AlphaAssay
Measure Name: Kd (nM)
Give your result in nM as a bare value.

Find the recorded Kd belonging to SCIN-A (protein) STSLPTSNEYQNEKLANELKSLLDELNVNELATGSLNTYYKRTIKISGQKAMYALKSKDFKKMSEAKYQLQKIYNEIDEALKSKY and report it.
74

Origin of values: paper PMC4565748
